test system: MDR1 (G1199A variant); experiment: in vitro; settings: human, HEK293 cells recombinantly expressing MDR1 G1199A, EC50 for cell growth inhibition, HEK - MDR1 G1199A; 0 month; 72 hours
Experimental readout: EC50 at 72 h (nM)
Expressed in nM, but write only the number.

Any idea what EC50 at 72 h was measured for CC[C@]1(O)C[C@H]2CN(CCc3c([nH]c4ccccc34)[C@@](C(=O)OC)(c3cc4c(cc3OC)N(C=O)[C@H]3[C@@](O)(C(=O)OC)[C@H](OC(C)=O)[C@]5(CC)C=CCN6CC[C@]43[C@@H]65)C2)C1 [vincristine] ?
683

----------
tested on: MDR1 (G1199A variant); assay: in vitro; conditions: human, HEK293 cells recombinantly expressing MDR1 G1199A, EC50 for cell growth inhibition, HEK - MDR1 G1199A; 1 months; 72 hours
Experimental readout: EC50 at 72 h (nM)
Expressed in nM, but write only the number.

Which measured EC50 at 72 h belongs to CC[C@]1(O)C[C@H]2CN(CCc3c([nH]c4ccccc34)[C@@](C(=O)OC)(c3cc4c(cc3OC)N(C=O)[C@H]3[C@@](O)(C(=O)OC)[C@H](OC(C)=O)[C@]5(CC)C=CCN6CC[C@]43[C@@H]65)C2)C1 , tested on MDR1 (G1199A variant)?
667

----------
system: MDR1 (G1199T variant); assay: Cytotoxic drug sensitivity assay (MTS); type: cell-based, human; conditions: human, HEK293 cells recombinantly expressing MDR1 G1199T; HEK - MDR1 G1199T; 0 month; 72 hours; read-out: EC50 for cell growth inhibition
Experimental readout: EC50 at 72 h (nM)
Expressed in nM, but write only the number.

Any idea what EC50 at 72 h was measured for CC[C@]1(O)C[C@H]2CN(CCc3c([nH]c4ccccc34)[C@@](C(=O)OC)(c3cc4c(cc3OC)N(C=O)[C@H]3[C@@](O)(C(=O)OC)[C@H](OC(C)=O)[C@]5(CC)C=CCN6CC[C@]43[C@@H]65)C2)C1 [vincristine] ?
246

----------
system: MDR1 (wild type); experiment: Cytotoxic drug sensitivity assay (MTS); assay type: cell-based, human; conditions: human, HEK293 cells recombinantly expressing MDR1 wild type, HEK - MDR1 WT; 0 month; 72 hours; read-out: EC50 for cell growth inhibition
Experimental readout: EC50 at 72 h (µM)
Expressed in µM, but write only the number.

Any idea what EC50 at 72 h was measured for CC[C@]1(O)C[C@H]2CN(CCc3c([nH]c4ccccc34)[C@@](C(=O)OC)(c3cc4c(cc3OC)N(C=O)[C@H]3[C@@](O)(C(=O)OC)[C@H](OC(C)=O)[C@]5(CC)C=CCN6CC[C@]43[C@@H]65)C2)C1 ?
0.494

----------
tested on: MDR1 (wild type); test: Cytotoxic drug sensitivity assay (MTS); type: cell-based, human; settings: human, HEK293 cells recombinantly expressing MDR1 wild type, HEK - MDR1 WT; 1 months; 72 hours; read-out: EC50 for cell growth inhibition
Experimental readout: EC50 at 72 h

Any idea what EC50 at 72 h was measured for CC[C@]1(O)C[C@H]2CN(CCc3c([nH]c4ccccc34)[C@@](C(=O)OC)(c3cc4c(cc3OC)N(C=O)[C@H]3[C@@](O)(C(=O)OC)[C@H](OC(C)=O)[C@]5(CC)C=CCN6CC[C@]43[C@@H]65)C2)C1 ?
512 nM

These entries and their values trace back to patent US7445897B2.
